# System: Saccharomyces cerevisiae BY4741 SeMeCo community
# ASSAY_INFO: mean cell size (pixel area) (pixels); higher = larger cells
# EXPERIMENTAL_PARAMETERS: 10 µM; 24 h; SM minimal medium
Documented mean cell size across a set of compounds
Kindly provide the number alone.

Sample records with mean cell size:
COMPOUND	ASSAY_SYSTEM	PROPERTY_LABEL	ENDPOINT_RESULT
CC[C@H]1OC(=O)[C@H](C)[C@@H](O[C@H]2C[C@@](C)(OC)[C@@H](O)[C@H](C)O2)[C@H](C)[C@@H](O[C@@H]2O[C@H](C)C[C@H](N(C)C)[C@H]2O)[C@](C)(O)C[C@@H](C)CN(C)[C@H](C)[C@@H](O)[C@]1(C)O [Azithromycin Dihydrate]	Saccharomyces cerevisiae BY4741 SeMeCo community	mean cell size	12.5
Clc1ccc(CCC(Cn2ccnc2)Sc2c(Cl)cccc2Cl)cc1 (centres undefined) [Butoconazole]	Saccharomyces cerevisiae BY4741 SeMeCo community	mean cell size	12.1
C1N2CN3CN1CN(C2)C3 [Methenamine]	Saccharomyces cerevisiae BY4741 SeMeCo community	mean cell size	12.2
O=C(O)CCC(=O)OC[C@@H](NC(=O)C(Cl)Cl)[C@H](O)c1ccc([N+](=O)[O-])cc1 [Chloramphenicol sodium succinate]	Saccharomyces cerevisiae BY4741 SeMeCo community	mean cell size	12.1
Clc1ccc(COC(Cn2ccnc2)c2ccc(Cl)cc2Cl)c(Cl)c1 (centres undefined) [Miconazole Nitrate]	Saccharomyces cerevisiae BY4741 SeMeCo community	mean cell size	12.3
COc1ccnc(C[S+]([O-])c2nc3cc(OC(F)F)ccc3[nH]2)c1OC (centres undefined) [Pantoprazole]	Saccharomyces cerevisiae BY4741 SeMeCo community	mean cell size	12.4
CCc1cccc2c3c([nH]c12)C(CC)(CC(=O)O)OCC3 (centres undefined) [Etodolac]	Saccharomyces cerevisiae BY4741 SeMeCo community	mean cell size	12.5
CC(=O)O[C@]1(C(C)=O)CC[C@H]2[C@@H]3C[C@H](C)C4=CC(=O)CC[C@]4(C)[C@H]3CC[C@@]21C [Medroxyprogesterone acetate]	Saccharomyces cerevisiae BY4741 SeMeCo community	mean cell size	12.6

Now let's try a different one.
Task item: Name the recorded mean cell size for N#CC(c1ccc(Cl)cc1)c1c(Cl)cc(-n2ncc(=O)[nH]c2=O)cc1Cl (centres undefined) [Diclazuril] .
Reply: 12.5

* * *

# Test system: Saccharomyces cerevisiae BY4741 SeMeCo community
# ASSAY_INFO: z-score of subpopulation abundance vs DMSO median, subpopulation auxotrophic for HLM; higher = larger share of this subpopulation than in DMSO controls
# EXPERIMENTAL_PARAMETERS: 10 µM; 24 h; SM minimal medium; subpopulation (auxotrophy): HLM
Counter-ions that a name gives are not always drawn.
Documented z-score of subpopulation abundance across a set of compounds
Kindly provide the number alone.

Sample records with z-score of subpopulation abundance:
In [3]: df
Out[3]:
                                   compound                              assay_system  endpoint_result
0  CCCOc1ccc2c(c1)CC[C@@H]1[C@@H]2CC[C@]2(C)[C@@H](OC)CC[C@@H]12  Saccharomyces cerevisiae BY4741 SeMeCo community             0.48
1  CCN(CC)CCOc1ccc2c(c1)C(=O)c1cc(OCCN(CC)CC)ccc1-2 [Tilorone dihydrochloride]  Saccharomyces cerevisiae BY4741 SeMeCo community             0.21
2  CC1=C(C(=O)O)N2C(=O)[C@@H](NC(=O)[C@H](N)C3=CCC=CC3)[C@H]2SC1 [Cephradine monohydrate]  Saccharomyces cerevisiae BY4741 SeMeCo community             0.11

Task item: Name the recorded z-score of subpopulation abundance for CO[C@@]1(NC(=O)C(C(=O)O)c2ccc(O)cc2)C(=O)N2C(C(=O)O)=C(CSc3nnnn3C)CO[C@@H]21 (some centres undefined) [Latamoxef sodium] .
Reply: 0.83

* * *

Documented z-score of subpopulation abundance across a set of compounds
# System: Saccharomyces cerevisiae BY4741 SeMeCo community
# ASSAY_INFO: z-score of subpopulation abundance vs DMSO median, subpopulation auxotrophic for M; higher = larger share of this subpopulation than in DMSO controls
# EXPERIMENTAL_PARAMETERS: 10 µM; 24 h; SM minimal medium; subpopulation (auxotrophy): M
Counter-ions that a name gives are not always drawn.
Kindly provide the number alone.

Task item: Name the recorded z-score of subpopulation abundance for CCn1cc(C(=O)O)c(=O)c2cc(F)c(N3CCNC(C)C3)c(F)c21 (centres undefined) [Lomefloxacin HCl] .
Reply: 1.99

Task item: Name the recorded z-score of subpopulation abundance for CC(C)NNC(=O)c1ccncc1 .
Reply: -0.2

Task item: Name the recorded z-score of subpopulation abundance for NC(=N\CCCCCC/N=C(N)/N=C(\N)Nc1ccc(Cl)cc1)/N=C(\N)Nc1ccc(Cl)cc1 [Chlorhexidine diacetate] .
Reply: -2.47

Task item: Name the recorded z-score of subpopulation abundance for O=[N+]([O-])c1ccc(O)c2ncccc12 .
Reply: 1.38

Task item: Name the recorded z-score of subpopulation abundance for C#C[C@]1(O)CC[C@H]2[C@@H]3CCc4cc(O)ccc4[C@H]3CC[C@@]21C .
Reply: 0.05

Task item: Name the recorded z-score of subpopulation abundance for Cc1nc(=O)c2cc(CN(C)c3ccc(C(=O)N[C@@H](CCC(=O)O)C(=O)O)s3)ccc2[nH]1 .
Reply: 0.3

Task item: Name the recorded z-score of subpopulation abundance for O=C1Cc2cc(CCN3CCN(c4nsc5ccccc45)CC3)c(Cl)cc2N1 [Ziprasidone HCl] .
Reply: 0

Task item: Name the recorded z-score of subpopulation abundance for CC1(C)CC[C@]2(C(=O)O)CC[C@]3(C)C(=CC[C@@H]4[C@@]5(C)CC[C@H](O)C(C)(C)[C@@H]5CC[C@]43C)[C@@H]2C1 .
Reply: 0.25

Task item: Name the recorded z-score of subpopulation abundance for CCCN[C@H]1CCc2nc(N)sc2C1 [Pramipexole 2HCl Monohydrate] .
Reply: 0.15

* * *

Documented z-score of subpopulation abundance across a set of compounds
# System: Saccharomyces cerevisiae BY4741 SeMeCo community
# ASSAY_INFO: z-score of subpopulation abundance vs DMSO median, subpopulation auxotrophic for HM; higher = larger share of this subpopulation than in DMSO controls
# EXPERIMENTAL_PARAMETERS: 10 µM; 24 h; SM minimal medium; subpopulation (auxotrophy): HM
Where a name gives a salt, the structure may show the parent alone.
Kindly provide the number alone.

Sample records with z-score of subpopulation abundance:
>>> df
                                   compound                      property_label  endpoint_result
0  CC[N+](CC)(CC)CC [Tetraethylammonium bromide]  z-score of subpopulation abundance             0.22
1  Cc1ccc(O)c([C@H](CCN(C(C)C)C(C)C)c2ccccc2)c1 [Tolterodine tartrate]  z-score of subpopulation abundance             0.62
2  O=c1[nH]cnc2c1ncn2[C@@H]1O[C@H](CO)[C@@H](O)[C@H]1O  z-score of subpopulation abundance            -0.53

Now let's try a different one.
Task item: GET /values?readout=z-score of subpopulation abundance&system=Saccharomyces cerevisiae BY4741 SeMeCo community&item= NC12CC3CC(CC(C3)C1)C2 [Amantadine HCl]
Reply: -0.31

* * *

# Tested on: Saccharomyces cerevisiae BY4741 SeMeCo community
# ASSAY_INFO: z-score of subpopulation abundance vs DMSO median, subpopulation auxotrophic for HLUM; higher = larger share of this subpopulation than in DMSO controls
# EXPERIMENTAL_PARAMETERS: 10 µM; 24 h; SM minimal medium; subpopulation (auxotrophy): HLUM
Counter-ions that a name gives are not always drawn.
PROPERTY_LABEL: z-score of subpopulation abundance
Kindly provide the number alone.

Sample records with z-score of subpopulation abundance:
                                   compound  endpoint_result
0           Cc1nnc(NS(=O)(=O)c2ccc(N)cc2)s1            -0.49
1  CC1(C)S[C@@H]2[C@H](NC(=O)[C@H](NC(=O)N3CCNC3=O)c3ccccc3)C(=O)N2[C@H]1C(=O)O [Azlocillin sodium salt]             0.63

Now let's try a different one.
Task item: Name the recorded z-score of subpopulation abundance for Cc1c(-c2ccccc2)oc2c(C(=O)OCCN3CCCCC3)cccc2c1=O [Flavoxate HCl] .
Reply: 1.01

* * *

# Tested on: Saccharomyces cerevisiae BY4741 SeMeCo community
# ASSAY_INFO: z-score of subpopulation abundance vs DMSO median, subpopulation auxotrophic for M; higher = larger share of this subpopulation than in DMSO controls
# EXPERIMENTAL_PARAMETERS: 10 µM; 24 h; SM minimal medium; subpopulation (auxotrophy): M
Documented z-score of subpopulation abundance across a set of compounds
Kindly provide the number alone.

Sample records with z-score of subpopulation abundance:
>>> df
                                   compound                      property_label  endpoint_result
0  COCC1=C(C(=O)OC(C)OC(=O)OC(C)C)N2C(=O)[C@@H](NC(=O)/C(=N\OC)c3csc(N)n3)[C@H]2SC1 (stereo not given in full)  z-score of subpopulation abundance              0.5
1    O=C1CCc2cc(OCCCCc3nnnn3C3CCCCC3)ccc2N1  z-score of subpopulation abundance            -0.68
2        NC12CC3CC(CC(C3)C1)C2 [Amantadine]  z-score of subpopulation abundance            -0.63

Task item: Name the recorded z-score of subpopulation abundance for CC(C(=O)O)c1ccc2c(c1)Cc1cccnc1O2 (stereo not given) .
Reply: -0.49

Task item: Name the recorded z-score of subpopulation abundance for O=C1c2cccc3c2[C@H](CCC3)CN1[C@@H]1CN2CCC1CC2 [Palonosetron] .
Reply: -0.21

The values you see were collected from the supplement of paper PMC8975748.
